- assay info: logP (acidic, pH 2.3)
- applied conditions: pH 2.3, logP acidic, acidic
Assign labels as follows, please: fulfilled for logP below 3; not fulfilled for logP equal to or exceeding 3.

# compound, assigned label
records = [
    ("Cc1cc(Oc2ccc(C3CCCC3)cc2)c(C)cc1/N=C/N1CCCCC1 [Compound 35]", "not fulfilled"),
    ("CCN(C)C=Nc1cc(C)c(Oc2ccc(C3CCCC3)cc2)cc1C [Compound 32]", "fulfilled"),
    ("CCN(C)C=Nc1cc(C)c(Oc2ccc(-c3ccc(OC)cc3)cc2)cc1C [Compound 5]", "fulfilled"),
    ("Cc1cc(Oc2ccc(C3CCCCC3)cc2)c(C)cc1N=CN(C)C(C)C [Compound 39]", "not fulfilled"),
    ("Cc1cc(Oc2ccc(C3CCCC3)cc2)c(C)cc1/N=C/N1CCCCC1C (stereo not shown) [Compound 34]", "not fulfilled"),
    ("CCN(C)C=Nc1cc(C)c(Oc2ccc(-c3ccc(C(C)(C)C)cc3)cc2)cc1C [Compound 7]", "not fulfilled"),
    ("CCN(C)C=Nc1cc(C)c(Oc2ccc(-c3ccccc3OCC(C)C)cc2)cc1C [Compound 29]", "not fulfilled"),
    ("Cc1cc(Oc2ccc(C3CCCCC3)cc2)c(C)cc1/N=C/N1CCCCC1 [Compound 41]", "not fulfilled"),
]

---

- assay info: logP (acidic, pH 2.3)
- applied conditions: pH 2.3, log P (pH 2.3), pH 2.3
Assign labels as follows, please: Satisfied for logP below 3; Not satisfied for logP equal to or exceeding 3.

# compound, assigned label
data = [
    ("Cc1cc(Oc2ccc(C3CCCCC3)cc2)c(C)cc1N", "Not satisfied"),
    ("CCN(C)C=Nc1cc(C)c(Oc2ccc(-c3ccc(OC)cc3)cc2)cc1C [Compound 5]", "Satisfied"),
    ("Cc1cc(Oc2ccc(Br)cc2)c(C)cc1N [4-(4-Bromophenoxy)-2,5-dimethylaniline]", "Satisfied"),
]

---

- assay info: logP (acidic, pH 2.3)
- applied conditions: pH 2.3
Listing of entries alongside the reported logP.
readout kind: logP

# structure notation, reading
data = [
    ("CCN(C)C=Nc1cc(C)c(Oc2ccc(-c3ccccc3F)cc2)cc1C", 2.56),
    ("Cc1cc(Oc2ccc(-c3ccccc3C(C)C)cc2)c(C)cc1/N=C/N1CCCCC1", 2.46),
    ("CCN(C)C=Nc1cc(C)c(Oc2ccc(-c3ccccc3C(C)=O)cc2)cc1C", 2.29),
    ("CCCCO/N=C/c1ccc(-c2ccc(Oc3cc(C)c(N=CN(C)CC)cc3C)cc2)cc1", 3.51),
    ("CCN(C)C=Nc1cc(C)c(Oc2ccc(-c3ccccc3C(F)(F)F)cc2)cc1C", 2.77),
    ("CC(=O)c1ccccc1-c1ccc(Oc2cc(C)c(/N=C/N3CCCCC3)cc2C)cc1", 3.52),
    ("CCc1ccccc1-c1ccc(Oc2cc(C)c(N=CN(C)CC)cc2C)cc1", 2.89),
    ("CCc1ccccc1-c1ccc(Oc2cc(C)c(/N=C/N3CCCCC3)cc2C)cc1", 3.34),
    ("Cc1cc(Oc2ccc(-c3ccccc3C)cc2)c(C)cc1/N=C/N1CCCCC1", 3.22),
    ("CCN(C)C=Nc1cc(C)c(Oc2ccc(-c3ccccc3OC)cc2)cc1C", 2.49),
    ("Cc1cc(Oc2ccc(-c3ccccc3Cl)cc2)c(C)cc1/N=C/N1CCCCC1", 2.77),
    ("Cc1cc(Oc2ccc(-c3ccccc3C(F)(F)F)cc2)c(C)cc1/N=C/N1CCCCC1", 2.93),
    ("CCN(C)C=Nc1cc(C)c(Oc2ccc(-c3ccccc3C(C)C)cc2)cc1C", 3.06),
    ("CCN(C)C=Nc1cc(C)c(Oc2ccc(-c3ccccc3C)cc2)cc1C", 2.75),
    ("CCN(C)C=Nc1cc(C)c(Oc2ccc(-c3ccc(/C=N/OC)cc3)cc2)cc1C", 2.75),
    ("Cc1cc(Oc2ccc(-c3ccccc3F)cc2)c(C)cc1/N=C/N1CCCCC1", 2.98),
    ("CCN(C)C=Nc1cc(C)c(Oc2ccc(-c3ccc(F)cc3)cc2)cc1C", 2.69),
]

Reference source for all entries: patent US8299302B2
